Give measured Ki for each item. Keep answers brief.
# System name: Delta-type opioid receptor (Rattus norvegicus)
# Sequence (P33533 whole entry): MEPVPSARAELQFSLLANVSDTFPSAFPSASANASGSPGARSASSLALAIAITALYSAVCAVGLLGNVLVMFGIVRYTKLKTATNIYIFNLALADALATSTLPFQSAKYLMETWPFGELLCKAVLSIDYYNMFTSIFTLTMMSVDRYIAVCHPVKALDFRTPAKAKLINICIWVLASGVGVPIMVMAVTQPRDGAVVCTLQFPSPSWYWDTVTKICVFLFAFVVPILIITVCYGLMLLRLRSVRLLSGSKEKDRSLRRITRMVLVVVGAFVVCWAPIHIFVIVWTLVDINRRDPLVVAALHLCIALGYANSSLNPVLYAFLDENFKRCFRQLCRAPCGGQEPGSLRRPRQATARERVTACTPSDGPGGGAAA
# Protocol description: Displacement of [3H]deltorphin C from rat delta opioid receptor in brain P2 synaptosomes
# Format: subcellular
Residues, ends and D or L forms follow the SMILES beside them.
# unit: µM | format: bare number

Assign Ki to the following record: CN(C)c1ccc2cc3c(cc2c1)C(=O)N(C[C@H](NC(=O)CCCCCNC(=O)[C@H](Cc1ccccc1)NC(=O)[C@H](Cc1ccccc1)NC(=O)[C@@H]1CCCN1C(=O)[C@@H](N)Cc1ccc(O)cc1)C(N)=O)C3=O (HELM PEPTIDE1{Y.P.F.F.[O=C(CCCCCN[*:1])[*:2]].[CN(C)c1ccc2cc3c(cc2c1)C(=O)N(C[C@H](N[*:1])C(=O)[*:2])C3=O].[am]}$$$$V2.0)
5.94

Assign Ki to the following record: Cc1cc(O)cc(C)c1C[C@H](N)C(=O)N1Cc2ccccc2C[C@H]1C(=O)N[C@@H](CCC(=O)O)C(=O)NCCCCCC(=O)N[C@@H](CN1C(=O)c2cc3ccc(N(C)C)cc3cc2C1=O)C(N)=O
0.000158

Assign Ki to the following record: Cc1cc(O)cc(C)c1C[C@H](N)C(=O)N1Cc2ccccc2C[C@H]1C(=O)N[C@@H](CCC(=O)O)C(=O)N[C@@H](CN1C(=O)c2cc3ccc(N(C)C)cc3cc2C1=O)C(N)=O (HELM PEPTIDE1{[Cc1cc(O)cc(C)c1C[C@H](N)C(=O)[*:2]].[Tic].E.[CN(C)c1ccc2cc3c(cc2c1)C(=O)N(C[C@H](N[*:1])C(=O)[*:2])C3=O].[am]}$$$$V2.0)
0.0078

Assign Ki to the following record: N[C@@H](Cc1ccc(O)cc1)C(=O)N1CCC[C@H]1C(=O)N[C@@H](Cc1ccccc1)C(=O)N[C@@H](Cc1ccccc1)C(=O)NCCCCC/N=C(S)/N=C1/C=CC(=C2c3ccc(O)cc3Oc3cc(O)ccc32)C(C(=O)O)=C1
0.668

Assign Ki to the following record: CN(C)c1ccc2cc3c(cc2c1)C(=O)N(C[C@H](NC(=O)[C@@H]1CCCN1C(=O)[C@@H](N)Cc1ccc(O)cc1)C(=O)N[C@@H](Cc1ccccc1)C(N)=O)C3=O
0.839
